- Tested on: HCT-116 colon
- Method: NCI-60 one-dose screen, 48 h (100 = growth as untreated, 0 = no growth, -100 = all killed)
- Condition label: 10 µM unless noted
Compounds without any hit were thinned out: in the full panel of roughly 83,000, 20% have a hit.
# growth per record follows
Return type: number; implicit unit %.

>>> recorded_result("Cc1nn(-c2ccccc2)c2nc(C)n(-c3ccc(Br)cc3)c(=O)c12")
15.7
>>> recorded_result("O=[N+]([O-])c1cccc(-c2nc3sccn3c2-c2ccnc(NCCCNS(=O)(=O)c3cccc(F)c3)n2)c1")
7.77

Query block: Which growth value is on record for "CN(C)CC(=O)Nc1ccc(Cn2nnc3c2C(=O)c2nnn(Cc4ccc(NC(=O)CN(C)C)cc4)c2C3=O)cc1" ?
Result block: -87.7

###

- Test system: NCI-H460 lung
- Method: NCI-60 one-dose screen, 48 h
- Condition label: 10 µM unless noted
About 83,000 compounds went through this panel and 20% of them were active in at least one assay; those are over-represented in the sample as a whole. The source made the active and inactive calls. How the source made its calls: active means growth percent below 10; inactive means the rest.
Select the correct class. Options are yes (active), no (inactive) and nothing else.

The examples below pair each entry with its known result.
>>> group("CC[C@H](Nc1cc(C)nc(N)n1)c1nc2cccc(NCc3ccc(C(=O)NO)cc3)c2c(=O)n1-c1ccccc1")
"no"
>>> group("CC/C(Cc1ccccc1)=C(\\c1ccc(OCCN2CCCC2)cc1)c1ccc(OC(C)=O)cc1")
"no"
>>> group("C=C1CCC2C3(C)COC(c4cccc(Cl)c4)OC3CCC2(C)C1/C=C/C1=CCOC1=O (stereo not drawn)")
"no"

Query block: Hi team, can someone confirm the assay call for "Cc1cc(-c2nc3ccccc3s2)ccc1NC(=O)COc1ccc(Cl)cc1" ?
Result block: no

Query block: Hi team, can someone confirm the assay call for "COc1ccc2nc3cc(Cl)ccc3c(N3CCN(c4ccnc(N5CCOCC5)n4)CC3)c2c1" ?
Result block: no

Query block: Hi team, can someone confirm the assay call for "COCCOc1ccc(-c2nc3ccc(-c4nc5ccc(N6CCN(C)CC6)cc5[nH]4)cc3[nH]2)cc1" ?
Result block: no

Query block: Hi team, can someone confirm the assay call for "Cc1cccc(NC(=O)c2sc3nc4c(cc3c2N)C(=O)CCC4)c1" ?
Result block: yes

Query block: Hi team, can someone confirm the assay call for "COc1ccc(-c2nn(-c3ccccc3)cc2/C=C2\SC(=O)NC2=O)cc1" ?
Result block: no

###

- System: U251 CNS
- Method: NCI-60 one-dose screen, 48 h (100 = growth as untreated, 0 = no growth, -100 = all killed)
- Condition label: 10 µM unless noted
- Procedure: Growth inhibition of the U251 human tumor cell line is measured as a screen for anti-cancer activity. Cells are grown in 96 well plates and exposed to the test compound for 48 hours. Compounds are tested at a single concentration, which is 10^-5 M for most compounds. The reported endpoint is percent growth (GI% or GIPRCNT), where numbers from 0 - 100% represent growth inhibition, and numbers from -100% - 0 represent cell death. For example, a value of 40 represents 60% growth inhibition. […]
About 83,000 compounds went through this panel and 20% of them were active in at least one assay; those are over-represented in the sample as a whole.
# growth per record follows
Return type: number; implicit unit %.

Below, each entry is followed by its recorded growth result.
>>> recorded_result("COc1ccc(/C=C/C(=O)c2c(O)c(C)c(O)c3c2OC2=CC(O)=C(C(C)=O)C(=O)[C@]23C)cc1")
-27.9
>>> recorded_result("CCN(C(=O)CN1CCN(c2cc3c(cc2F)c(=O)c(C(=O)O)cn3C2CC2)CC1)c1nc(-c2ccc(OC)cc2)cs1")
14.1
>>> recorded_result("O=C1CCc2c(sc3[nH]c(=S)n(Cc4ccccc4)c(=O)c23)C1")
8.09
>>> recorded_result("CC(C)(C)c1nn(-c2ccccc2)c2c1CC1(CN2Cc2ccc3c(c2)OCO3)C(=O)c2ccccc2C1=O")
105
>>> recorded_result("CCOC(=O)C(C#N)C1CCCCC1 (configuration not stated)")
93.8
>>> recorded_result("CC[n+]1ccc2c(c1)C(=O)c1nccc3c1c-2nc1ccccc13")
-60

Query block: Which growth value is on record for "S=c1[nH]nc(CSc2ncnc3c2c(-c2ccccc2)cn3-c2ccc(Cl)cc2)o1" ?
Result block: 93.8

Query block: Which growth value is on record for Cn1c(=O)c2[nH]c(C(O)C(O)C(O)C(O)CO)nc2n(C)c1=O (configuration not stated) ?
Result block: 100

Query block: Which growth value is on record for "CC(C)(C)n1cc(-c2ccnc(NCCNS(=O)(=O)c3ccccc3)c2)c(-c2cccc(O)c2)n1" ?
Result block: 52

Query block: Which growth value is on record for "O=C(O)c1cccc2c1-c1ccccc1C2=O" ?
Result block: 95.7

Query block: Which growth value is on record for "CCCCNP1(NCCCC)=NP(NCCCC)(NCCCC)=NP(NCCCC)(NCCCC)=NP(NCCCC)(NCCCC)=N1" ?
Result block: 11

Query block: Which growth value is on record for "COc1cc(-c2c3sc(=O)[nH]c3nc3c2c(=O)[nH]n3C(C)C)cc2c1OCO2" ?
Result block: 103

Query block: Which growth value is on record for "NCc1cn2cc(Cl)sc2n1" ?
Result block: 93.2

Query block: Which growth value is on record for "CCN(CC)c1ccc(/C=C/C2=[N+](C)c3ccccc3C2(C)C)cc1" ?
Result block: 13.8

Query block: Which growth value is on record for "O=[N+]([O-])c1cccc(-c2nc3sccn3c2-c2ccnc(NCCCNS(=O)(=O)c3ccc(Br)cc3)n2)c1" ?
Result block: 83.8

Query block: Which growth value is on record for "COc1cccc(-c2nc3sccn3c2-c2ccnc(NCCCNS(=O)(=O)c3ccccc3)c2)c1" ?
Result block: 65.4

Query block: Which growth value is on record for "CC(=O)Oc1ccc(Nc2c3ccccc3nc3ccccc23)cc1" ?
Result block: 8.7
